Parameter drug sensitivity score: see the listing below.
# Tested on: Caco-2
# PROTOCOL NOTES: drug sensitivity score (DSS) for viability; higher = more toxic; extreme values may be limits of the assay
# SETTINGS: 72 h
Quick one: just the number, no unit, thanks!

{"COMPOUND": "CC(C)c1c2cc(-c3ccnc(N[C@H]4CC[C@H](NC5CCOCC5)CC4)n3)ccc2nn1C", "drug sensitivity score": 9.6}
{"COMPOUND": "O=c1ncccn1[C@@H]1O[C@H](CO)[C@@H](O)[C@H]1O [zebularine]", "drug sensitivity score": 0}

Qu. Dear colleague, I am looking for the recorded drug sensitivity score of the following compound: CC[C@@H]1C(=O)OC[C@@H]1Cc1cncn1C [pilocarpine]
Ans. 0

Qu. Dear colleague, I am looking for the recorded drug sensitivity score of the following compound: CC/C(=C(/CC)c1ccc(OP(=O)(O)O)cc1)c1ccc(OP(=O)(O)O)cc1 [fosfestrol]
Ans. 0
